test system: OVCAR-5 ovarian; assay: NCI tumour cell line growth inhibition, 48 h
Readout: TGI

Task: So what does the record say about TGI for CC(C)=CC(=O)Cc1nc2ccccc2[nH]c1=O ?
Result: > 100 µM

Task: Also C/C(C=O)=N\Nc1cc(C)c2ccccc2n1 ?
Result: 34.3 µM

Task: Also CN(C)c1ccc(C(C#N)N2CCCN(C(C#N)c3ccc(N(C)C)cc3)C2c2ccc(N(C)C)cc2)cc1 (stereo not given) ?
Result: > 100 µM

Task: Also CC(=O)Nc1c(C)cc(OCC(=O)O)cc1C ?
Result: > 100 µM

Task: Also CN(C)c1ccc(C2CC(=O)CC(c3ccc(N(C)C)cc3)C23C(=O)NC(=O)NC3=O)cc1 (stereo not given) ?
Result: > 25 µM

Task: Also COc1ccc2c(c1)c(Cc1c(C)n(C)c3ccc(OC)cc13)c(C)n2C ?
Result: > 100 µM

Task: Also N#Cc1cnn2c1n[n+]([O-])c1ccc(Cl)cc12 ?
Result: > 76.8 µM

Task: Also CCOc1ccc(NCC(=O)N2CC(=O)Nc3ccccc32)cc1 ?
Result: > 100 µM

Task: Also N#CCCc1nc2ccc(Br)cc2c(=O)n1-c1ccc(O)c([N+](=O)[O-])c1 ?
Result: > 100 µM

Task: Also Cc1cccc2c3c(sc12)C(c1ccc(Cl)cc1)C(C#N)=C(/N=C/c1ccc(Cl)cc1)O3 (stereo not given) ?
Result: > 100 µM

----------
I'd be grateful if you could share measured TGI for these entries.
test system: RXF 393 renal; test: NCI tumour cell line growth inhibition, 48 h

Task: So what does the record say about TGI for COC(=O)C1=CN(CC2=CC(=O)C(C)=CC2=O)C=C(C(=O)OC)C1c1cccc(OC)c1OC ?
Result: 26.9 µM

Task: Also c1ccc(-c2nc(Nc3ccc(-c4nc5ccccc5[nH]4)cc3)nc(N3CCOCC3)n2)cc1 ?
Result: 2.12 µM

Task: Also Cc1cc2c(cn1)C(=O)OCC2 ?
Result: > 100 µM

Task: Also O=C1C(NCCc2cc(Br)c(O)c(Br)c2)=CC(=O)c2ncccc21 ?
Result: 29.1 µM

Task: Also O=C1N=C2c3c(sc4c3CCCC4)N=CN2C1N=Nc1ccc(Cl)cc1 (stereo unspecified) ?
Result: > 100 µM

Task: Also C/C(C=O)=C1\C(O)C[C@]1(C)C1CC(C)(C)CC1O (stereo partly specified) ?
Result: > 100 µM

Task: Also CCOP(=O)(CS(C)=O)O[C@@H]1C[C@H](C)CC[C@H]1C(C)C (stereo partly specified) ?
Result: 7.83 µM

Task: Also COc1ccc(NC=O)c(C(O)CCNC(C)=O)c1 (stereo unspecified) ?
Result: > 100 µM

Task: Also S=C(Nc1ccccc1)c1ccccn1 ?
Result: > 100 µM

Task: Also CCC(=O)N(c1ccccc1)C(C)CN1CCC(O)(c2ccccc2)CC1 (stereo unspecified) ?
Result: > 100 µM

Task: Also CCOC(=O)c1sc(=S)c2c(C(=O)c3ccccc3)c(C(=O)c3ccccc3)sc2c1C(=O)OCC ?
Result: > 100 µM

----------
I'd be grateful if you could share measured log10 of TGI for these entries.
tested on: SF-539 CNS; assay: NCI tumour cell line growth inhibition, 48 h
Kindly note that the scale is log10 and the underlying TGI is in µM.

Task: So what does the record say about log10 of TGI for OCCNc1nc(NCCO)nc(Nc2ccc(C3=NN(c4cc(Cl)cc(Cl)c4)C(c4ccc(Cl)cc4)C3)cc2)n1 (centres undefined) ?
Result: 0.42

Task: Also CC1CCCc2c(-c3ccc(Cl)cc3)nc(N)c(C#N)c21 (centres undefined) ?
Result: 1.97

Task: Also Fc1ccc(C(OCCN2CCC3CCC(C2)N3CCCc2ccccc2)c2ccc(F)cc2)cc1 (centres undefined) ?
Result: 0.45

Task: Also CCCCCCN1C(=O)/C(=c2\sc3n(c2=O)C2C(NN=3)N(CC)C(=O)N2CC)c2ccccc21 (centres undefined) ?
Result: 0.20

Task: Also Cc1c(-c2ccccc2)c(-c2ccc(OCCN(C)C)cc2)n2ccccc12 ?
Result: 1.39
